The compounds below each have a reported Ki tested on Translocator protein (Rattus norvegicus, UniProt P16257); the values come from various publications.
Record the value in nM, omitting the unit from your answer.

Examples with answers:
{"compound": "CCN(Cc1ccccc1)C(=O)c1coc(-c2ccccc2)n1", "unit-abbreviation": "nM", "Ki": 5490}
{"compound": "CCCCCCN(CCCCCC)C(=O)Cc1coc(-c2ccccc2)n1", "unit-abbreviation": "nM", "Ki": 151}
{"compound": "O=C(c1nc2ccccc2c(-c2ccccc2)c1CI)N1CCOCC1", "unit-abbreviation": "nM", "Ki": 27.8}
{"compound": "CCN(CC)C(=O)C1Sc2ccccc2-c2c1c1cc(OC(F)(F)F)ccc1n2CCF (racemic)", "unit-abbreviation": "nM", "Ki": 0.26}
{"compound": "CC[C@H](C)N(C)C(=O)c1nc(-c2ccccc2Cl)c2ccccc2n1", "unit-abbreviation": "nM", "Ki": 2.2}
{"compound": "CCN(Cc1ccccc1)C(=O)c1nc(-c2ccc(C)cc2)c2ccccc2n1", "unit-abbreviation": "nM", "Ki": 1.49}

Q. Could you share which Ki value was measured for `CC(C)N(C(=O)C(=O)c1c(-c2ccccc2)[nH]c2ccccc12)C(C)C` ?
A. 103

Q. Record request: Ki value, item `CCN(Cc1ccccc1)C(=O)C(=O)c1c(-c2ccccc2)[nH]c2ccccc12`
A. 11

Q. Could you share which Ki value was measured for `CCCCN(CC)C(=O)C(=O)c1c(-c2ccccc2)[nH]c2ccccc12` ?
A. 12.6

Q. Fill blank: measured Ki of the compound `CC(=O)N(Cc1ccccc1O[11CH3])c1cnccc1Oc1ccccc1` is ____.
A. 0.68
